These entries and their values trace back to ChEMBL document CHEMBL5331057.

- target: GTPase KRas (Homo sapiens)
- Sequence (P01116 whole entry): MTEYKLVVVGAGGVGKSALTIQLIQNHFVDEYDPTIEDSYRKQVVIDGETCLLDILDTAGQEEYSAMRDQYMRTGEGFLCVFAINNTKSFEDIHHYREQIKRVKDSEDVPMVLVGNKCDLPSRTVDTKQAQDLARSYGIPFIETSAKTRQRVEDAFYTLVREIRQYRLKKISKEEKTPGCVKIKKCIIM
- measurement_notes: Inhibition of K-Ras in human NCI-H460 cells
- Assay type: cell-based
measure_name: pIC50
Answers are plain numbers, as −log10 of the molar value.

Dear colleague, I am looking for the recorded pIC50 of the following compound: NC(=O)N1CCC(CC(=O)N2CCC([C@H]3c4ncc(Br)cc4CCc4cc(Cl)cc(Br)c43)CC2)CC1
7.40

====

- Tested on: SW-620
- measurement_notes: cells
- test_settings: Homo sapiens
measure_name: IC50 (nM)
Answers are plain numbers, in nM.

Param item = O=C(c1cc(Cc2n[nH]c(=O)c3ccccc23)ccc1F)N1CCN(C(=O)C2CC2)CC1 ; retrieve measured IC50.
6
